Below, each entry is listed with its recorded Anti-CD28 Fab signal in the presence of CD28.
- experimental target: Anti-CD28 Fab (SEQ ID NOs: 202, 203)
- Sequence (VH, as listed by the source, chain 1 of 2): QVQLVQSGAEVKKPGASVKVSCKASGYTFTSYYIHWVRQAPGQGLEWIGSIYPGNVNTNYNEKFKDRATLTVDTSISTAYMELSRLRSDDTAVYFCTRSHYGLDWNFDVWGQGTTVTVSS
- Sequence (VL, as listed by the source, chain 2 of 2): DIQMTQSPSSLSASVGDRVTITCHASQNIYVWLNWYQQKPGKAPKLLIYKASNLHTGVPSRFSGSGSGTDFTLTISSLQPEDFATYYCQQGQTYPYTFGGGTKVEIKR
- protocol: phage binding ELISA on captured Fab, competitor CD28 antigen;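 also: clonal phage supernatant binding in wells preincubated with CD28 antigen in blocking buffer, detected by HRP-conjugated anti-M13 antibody ELISA, compared with blocking buffer alone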
test readout: Anti-CD28 Fab signal in the presence of CD28

* YCEGHAAVYMHKCL [Phage-846] | 0.09
* YCEGHLGLYMKKCL [Phage-871] | 0.06
* YCDGHEPQYMTKCL [Phage-843] | 0.1
* YCDGHMDAYMSKCL [Phage-847] | 0.06
* YCEGHLAVHMSKCL [Phage-854] | 0.06
* YCEGHLQEYMGKCL [Phage-860] | 0.25
* YCEGHAPQYMSKCL [Phage-755] | 0.08
* YCEGHMQWYMAKCL [Phage-877] | 0.09
